Molecular target: recombinant rat GluN1/GluN2B (Rattus norvegicus, UniProt P35439+Q00960)
Sequence (Q00960 27-1482, other chains not shown): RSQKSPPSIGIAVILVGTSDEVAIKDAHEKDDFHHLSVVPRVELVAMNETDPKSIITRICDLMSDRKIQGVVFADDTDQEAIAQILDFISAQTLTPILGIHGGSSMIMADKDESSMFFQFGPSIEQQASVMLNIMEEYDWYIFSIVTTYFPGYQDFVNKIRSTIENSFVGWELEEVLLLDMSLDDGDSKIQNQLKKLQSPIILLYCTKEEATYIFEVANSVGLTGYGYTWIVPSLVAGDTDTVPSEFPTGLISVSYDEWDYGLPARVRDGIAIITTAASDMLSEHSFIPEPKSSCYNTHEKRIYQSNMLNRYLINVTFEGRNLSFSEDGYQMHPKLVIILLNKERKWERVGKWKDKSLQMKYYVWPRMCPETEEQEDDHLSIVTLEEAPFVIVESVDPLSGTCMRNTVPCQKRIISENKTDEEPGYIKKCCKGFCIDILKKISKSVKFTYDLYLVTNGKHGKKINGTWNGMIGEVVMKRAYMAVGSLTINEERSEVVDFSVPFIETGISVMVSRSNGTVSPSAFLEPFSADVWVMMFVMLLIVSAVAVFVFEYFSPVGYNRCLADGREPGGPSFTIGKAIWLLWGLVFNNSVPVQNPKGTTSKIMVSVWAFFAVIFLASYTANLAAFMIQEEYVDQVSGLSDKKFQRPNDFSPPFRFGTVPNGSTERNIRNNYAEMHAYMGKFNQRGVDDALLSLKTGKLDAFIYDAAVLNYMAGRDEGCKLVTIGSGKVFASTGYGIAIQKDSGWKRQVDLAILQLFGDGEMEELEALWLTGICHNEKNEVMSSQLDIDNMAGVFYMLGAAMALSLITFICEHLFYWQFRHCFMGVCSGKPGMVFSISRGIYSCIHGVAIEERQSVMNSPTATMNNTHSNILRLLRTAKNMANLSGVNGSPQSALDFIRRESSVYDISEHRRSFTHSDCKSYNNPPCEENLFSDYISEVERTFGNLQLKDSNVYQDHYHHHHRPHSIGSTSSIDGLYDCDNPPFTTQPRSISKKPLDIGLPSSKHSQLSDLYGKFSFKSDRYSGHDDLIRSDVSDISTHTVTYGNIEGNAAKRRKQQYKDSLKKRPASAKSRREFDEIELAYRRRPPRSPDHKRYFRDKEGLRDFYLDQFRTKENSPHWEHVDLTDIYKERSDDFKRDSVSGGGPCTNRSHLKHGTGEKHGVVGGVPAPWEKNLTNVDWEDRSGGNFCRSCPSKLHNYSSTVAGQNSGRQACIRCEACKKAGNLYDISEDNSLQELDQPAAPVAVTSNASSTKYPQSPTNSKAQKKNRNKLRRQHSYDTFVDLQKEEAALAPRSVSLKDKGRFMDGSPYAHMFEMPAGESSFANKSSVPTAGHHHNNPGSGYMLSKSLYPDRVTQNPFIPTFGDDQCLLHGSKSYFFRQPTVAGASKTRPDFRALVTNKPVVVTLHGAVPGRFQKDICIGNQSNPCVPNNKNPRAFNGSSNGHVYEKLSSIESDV
Experiment: Two-electrode voltage-clamp recordings in Xenopus laevis oocytes, GluN2B
Conditions: oocytes, 100 μM glutamate and 30 μM glycine
pIC50: −log10 of the molar value.
READOUT: pIC50

COMPOUND	READOUT	MEASUREMENT
O=C(O)CC(F)(F)C(=O)N1N=C(c2ccccc2-c2ccc(Cl)cc2)CC1c1ccc(Cl)s1 (centres unmarked)	pIC50	4.92
Cc1ccc2[nH]c(=O)c(C3=NN(C(=O)C(F)(F)CC(=O)O)C(c4ccc(Cl)cc4)C3)c(-c3ccc(Cl)cc3)c2c1 (centres unmarked) [997-90]	pIC50	5.52
O=C(O)CCC(=O)N1N=C(c2c(-c3ccc(Cl)s3)c3ccccc3[nH]c2=O)CC1c1ccc(Cl)cc1 (centres unmarked)	pIC50	4.64
O=C(O)CC(F)(F)C(=O)N1N=C(c2ccccc2-c2ccc(Cl)cc2)CC1c1ccc(F)cc1 (centres unmarked)	pIC50	4.64
Cc1ccc2[nH]c(=O)c(C3=NN(C(=O)C(F)(F)CC(=O)O)C(c4ccc(Cl)cc4)C3)c(-c3ccc(Cl)cc3)c2c1 (single isomer, unassigned; (+)) [(+)-997-90]	pIC50	5.74
O=C(O)CCC(=O)N1N=C(c2c(-c3ccc(Cl)cc3)c3ccccc3[nH]c2=S)CC1c1ccc(Cl)cc1 (centres unmarked)	pIC50	4.52
O=C(O)CC(F)(F)C(=O)N1N=C(c2ccccc2-c2ccc(Cl)cc2)CC1c1ccc(OC(F)(F)F)cc1 (centres unmarked)	pIC50	5.06
O=C(O)CC(F)(F)C(=O)N1N=C(c2c(-c3ccc(Cl)cc3)c3ccccc3[nH]c2=O)CC1c1ccc(C(F)(F)F)cc1 (centres unmarked)	pIC50	5.54
O=C(O)CC(F)(F)C(=O)N1N=C(c2c(-c3ccc(Cl)cc3)c3ccccc3[nH]c2=O)CC1c1ccc(Cl)cc1 (centres unmarked)	pIC50	5.16
O=C(CC(F)(F)C(=O)O)N1N=C(c2c(-c3ccc(Cl)cc3)c3ccccc3[nH]c2=O)CC1c1ccc(Cl)cc1 (centres unmarked)	pIC50	5.09
O=c1[nH]c2ccccc2c(-c2ccc(Cl)cc2)c1C1=NNC(c2ccncc2)C1 (centres unmarked)	pIC50	4.27
O=C(O)CC(F)(F)C(=O)N1N=C(c2c(-c3ccc(F)cc3)c3cc(F)ccc3[nH]c2=O)CC1c1ccc(Cl)cc1 (centres unmarked)	pIC50	5.14
O=C(O)CC(F)(F)C(=O)N1N=C(c2ccccc2-c2ccc(C(F)(F)F)cc2)CC1c1ccc(Cl)cc1 (centres unmarked)	pIC50	4.83
O=C(O)CC(F)(F)C(=O)N1N=C(c2c(-c3ccc(Cl)cc3)c3ccccc3[nH]c2=O)CC1c1ccc(F)cc1 (centres unmarked)	pIC50	4.52
